Assay: Phase I study: pharmacokinetics of Bel
Type: in vivo, human
Conditions: human, in vivo, intravenous; belinostat 1000 mg/m^2/day in combination with FU, Cycle 2 Day 5, n = 13; read-out: AUC0-∞, group mean (±SD)
parameter.measured: AUC(0-inf) (ng·h/mL)
Express the result in ng·h/mL but write the number alone.

Input line: Name the recorded AUC(0-inf) for O=C(/C=C/c1cccc(S(=O)(=O)Nc2ccccc2)c1)NO .
Output line: 33300

---

Test: Phase I study: pharmacokinetics of Bel
Format: in vivo, human
Details: human, in vivo, intravenous; belinostat 1000 mg/m^2/day in combination with FU, Cycle 2 Day 5, n = 13; read-out: Cmax, group mean (±SD)
parameter.measured: Cmax (ng/mL)
Express the result in ng/mL but write the number alone.

Input line: Name the recorded Cmax for O=C(/C=C/c1cccc(S(=O)(=O)Nc2ccccc2)c1)NO .
Output line: 49500
